B1: Subtilisin-chymotrypsin inhibitor-2A, P01053 (parent)
chain: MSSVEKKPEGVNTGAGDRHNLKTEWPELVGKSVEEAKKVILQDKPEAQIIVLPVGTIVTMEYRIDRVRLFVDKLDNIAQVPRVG

Variants of: B1
Settings: Hordeum vulgare; pH 6.3; 25 °C; GdnHCl; Fluorescence; MES 450 mM; reversible: yes; structure 2CI2; whole UniProt chain shown
Short version: denaturant midpoint (higher = more stable) at least 3 M is fulfilled, less is not fulfilled.

Check out these entries, answers already filled in.
I49A : not fulfilled
I49V : fulfilled
I40V : fulfilled
V39A : fulfilled
V67A : not fulfilled

IN: hey, is denaturant midpoint (higher = more stable) for this one >= 3 M? L28A
OUT: not fulfilled

IN: hey, is denaturant midpoint (higher = more stable) for this one >= 3 M? I49A I77V
OUT: not fulfilled

IN: hey, is denaturant midpoint (higher = more stable) for this one >= 3 M? I77A
OUT: not fulfilled

IN: hey, is denaturant midpoint (higher = more stable) for this one >= 3 M? L69A
OUT: not fulfilled
